# Test Description: Solubility test
# Assay type: physicochemical
# Test Parameters: JP 2nd fluid A, pH 6.8, aqueous buffer, kinetic from dmso stock; read-out: JP2_μM
Reported Endpoint: solubility kinetic at 1 h

Some molecules with known solubility kinetic at 1 h results, for comparison:
1. C[C@H]1SC(N)=N[C@](C)(c2cc(NC(=O)c3cnc(OC(F)F)cn3)ccc2F)[C@H]1F [Compound I-47] | 30.5 µM
2. COc1cnc(C(=O)Nc2ccc(F)c([C@@]3(C)N=C(N)O[C@H]4[C@@H]3OCC4(F)F)c2)cn1 [Compound I-36] | 15.9 µM
3. C[C@H]1SC(N)=N[C@](C)(c2cc(NC(=O)c3cnc(OCC(F)(F)F)cn3)ccc2F)[C@H]1F [Compound I-46] | 8.3 µM

Enquiry: Recorded solubility kinetic at 1 h for C[C@H]1SC(N)=N[C@](C)(c2cc(NC(=O)c3cnc(OCC(F)F)cn3)ccc2F)[C@H]1F [Compound I-48] , please?
Return: 39.5 µM

Enquiry: Recorded solubility kinetic at 1 h for C[C@H]1SC(N)=N[C@](C)(c2cc(NC(=O)c3coc(CF)n3)ccc2F)[C@H]1F [Compound I-49] , please?
Return: > 50 µM

Enquiry: Recorded solubility kinetic at 1 h for CC(F)(F)[C@H]1OC(N)=N[C@](C)(c2cc(NC(=O)c3ccc(C#N)cn3)ccc2F)[C@H]1F [Compound I-40] , please?
Return: > 50 µM

Enquiry: Recorded solubility kinetic at 1 h for C[C@@H](F)[C@H]1OC(N)=N[C@](C)(c2cc(NC(=O)c3ccc(C#N)cn3)ccc2F)[C@H]1F [Compound I-15] , please?
Return: > 50 µM

Enquiry: Recorded solubility kinetic at 1 h for C[C@H]1[C@@H](C(F)F)OC(N)=N[C@]1(C)c1cc(NC(=O)c2cnc(OCF)cn2)ccc1F [Compound I-33] , please?
Return: > 50 µM

###

Parameter: solubility kinetic at 1 h. Scope: all listed entries.
# Test Description: Solubility test
# Type: physicochemical
# Test Parameters: JP 1st fluid, pH 1.2, simulated gastric fluid, kinetic from dmso stock; read-out: JP1

1. CO[C@H]1[C@@H](C)SC(N)=N[C@]1(C)c1cc(NC(=O)c2ccc(C#N)cn2)ccc1F [Compound I-88] | > 50 µM
2. C[C@]1(c2cc(NC(=O)c3cnc(OCF)cn3)ccc2F)N=C(N)SCC12CC(F)(F)C2 [Compound I-56] | > 50 µM

Enquiry: Recorded solubility kinetic at 1 h for COc1cnc(C(=O)Nc2ccc(F)c([C@@]3(C)N=C(N)S[C@H](C)[C@@H]3OC)c2)cn1 [Compound I-90] , please?
Return: > 50 µM

Enquiry: Recorded solubility kinetic at 1 h for C[C@H]1[C@@H](C(F)F)OC(N)=N[C@]1(C)c1cc(NC(=O)c2cnc(OCF)cn2)ccc1F [Compound I-33] , please?
Return: 39.4 µM

Enquiry: Recorded solubility kinetic at 1 h for C[C@H]1SC(N)=N[C@](C)(c2cc(NC(=O)c3ccc(F)cn3)ccc2F)C12CC(F)(F)C2 [Compound I-63] , please?
Return: > 50 µM

###

# Test Description: Solubility test
# Format: physicochemical
# Test Parameters: JP 2nd fluid B, pH 6.8, aqueous buffer, kinetic from dmso stock; read-out: JP2_μM
Reported Endpoint: solubility kinetic at 1 h (µM)

1. COc1cnc(C(=O)Nc2ccc(F)c([C@@]3(C)N=C(N)O[C@H](C(F)(F)C4CC4)[C@@H]3F)c2)cn1 | 29.6

[A] C[C@H]1SC(N)=N[C@](C)(c2cc(NC(=O)c3cnc(OCC4CC4)cn3)ccc2F)[C@H]1F
[B] Cc1cc(C#N)cnc1C(=O)Nc1ccc(F)c([C@@]2(C)N=C(N)S[C@H](C)[C@@H]2F)c1
[C] C[C@@H]1SC(N)=N[C@](C)(c2cc(NC(=O)c3ccc(C#N)cn3)ccc2F)[C@@H]1F
Enquiry: Descending sort on solubility kinetic at 1 h required. Your task in answering is to list the labels in the requested order.
Return: C, B, A

Source of measurements: patent US20170073337A1
